# Test system: HBV
# assay_procedure: HBV inhibition assay: anti-HBV activity in vitro in HepG2.2.15 cells (extracellular HBV DNA by qPCR)
# Assay type: cell-based
# run_conditions: Hepatitis B virus, 120 h, five days after compound treatment, extracellular HBV DNA in culture supernatant by qPCR, concentration at which HBV replication is inhibited by 50%
# Text: Example 441: HBV Inhibition Assays Cell Line and Culture Conditions: HepG2.2.15 is a stably-transfected cell line containing the HBV genome. […] For quantitative PCR detection of extracellular HBV DNA, culture supernatant was processed by Proteinase K digestion. After heat inactivation of the enzyme, the samples were subjected to HBV DNA quantification by qPCR. […]
Checkbox rule: EC50 lower than 20 nM = t; EC50 not lower than 20 nM = f.

molecule	qualitative_label
C[C@H]1Cn2ncc(N3CCC(O)C3=O)c2CN1C(=O)Nc1ccc(F)c(Cl)c1 (some centres unmarked) [Example 256]	f
C[C@H]1Cn2ncc(N3CC(c4cnn(C)c4)CC3=O)c2CN1C(=O)Nc1cc(F)c(F)c(F)c1 (some centres unmarked) [Example 412]	f
O=C(Nc1cc(F)c(F)c(F)c1)N1CCn2cnc(-c3ccc(F)cc3F)c2C1 [Example 138]	f
C[C@H]1Cn2ncc(N3CC(c4ccccc4)NC3=O)c2CN1C(=O)Nc1cc(F)c(F)c(F)c1 (some centres unmarked) [Example 329]	t
C[C@H]1Cn2ncc(N3CC(C)(C)NC3=O)c2CN1C(=O)Nc1ccc(F)c(Cl)c1 [Example 245]	f
C[C@H]1Cn2ncc(N3C[C@@H](Oc4ncccn4)CC3=O)c2CN1C(=O)Nc1cc(F)c(F)c(F)c1 [Example 381]	t
C[C@H]1Cn2ncc(N3CC4(CC3=O)CN(c3ncccn3)C4)c2CN1C(=O)Nc1cc(F)c(F)c(F)c1 [Example 337]	t
C[C@H]1Cn2ncc(N3CC4CC4C3=O)c2CN1C(=O)Nc1cc(F)c(F)c(F)c1 (some centres unmarked) [Example 253]	f
CC1Cn2ncc(-c3ccc(F)cn3)c2CN1C(=O)Nc1ccc(F)c(C#N)c1 (centres unmarked) [Example 100]	f
CC1Cn2ncc(-c3ccc(F)cn3)c2CN1C(=O)Nc1cc(F)c(F)c(F)c1 (centres unmarked) [Example 99]	f
CC1Cn2ncc(N3CCCC3=O)c2CN1C(=O)Nc1ccc(F)c(C(F)(F)F)c1 (centres unmarked) [Example 203]	f

These measurements were taken from patent US11168086B2.
